Origin of the recorded values: PubChem BioAssay (NCI)

The following molecules are shown together with reported GI50 values.
tested on: UACC-257 melanoma; assay: NCI tumour cell line growth inhibition, 48 h

molecule: Cc1ccc(Nc2nc(NCCO)c3ccccc3n2)cc1C
GI50: 2.14 µM

molecule: CS(=O)(=O)c1ccc(Oc2cc(F)cc(C#N)c2)c2c1[C@H](O)[C@H](F)[C@@H]2F
GI50: > 100 µM

molecule: CC(C)(C)[OH+][O-].[O-]c1ccc(Cl)cc1C=Nc1ccc(Cl)cc1[O-].[O]=[V]
GI50: 13.9 µM

molecule: COc1ccc(CN2C(=O)/C(=C\c3cc(OC)c(OC)c(OC)c3)c3cc(OC)ccc32)cc1
GI50: 1.94 µM

molecule: CCn1c(=O)c(-c2ccn[nH]2)cc2c(C)nc(N)nc21
GI50: 1.38 µM

Input line: Report measured GI50 on UACC-257 melanoma; entry: CCC1=C(C)/C(=C/c2[nH]c(C)c(C(=O)CCCCC(=O)OC)c2C)N=C1c1ccc[nH]1
Output line: 16.1 µM

Input line: Answer with GI50 of CC1=C(C)C(=O)c2c(c(C(=O)c3ccccc3)c3nc4ccccc4n3c2C)C1=O measured for UACC-257 melanoma.
Output line: 95 µM

====

system: NCI/ADR-RES ovarian; assay: NCI tumour cell line growth inhibition, 48 h; in the data active means GI50 below about 0.43 µM; inactive means the rest
# output must be one of active, inactive

Reference set (8 entries):
compound: COc1ccc(C(=O)Cn2c(C(=O)c3ccc(OC)cc3)nc3ccccc32)cc1
category: inactive
--
compound: O=[N+]([O-])c1ccc(N2CCN(Cc3ccccc3)CC2)c2c1no[n+]2[O-]
category: inactive
--
compound: C=C1C(=O)O[C@H]2[C@H]1CC/C(COC(=O)C(=O)c1c[nH]c3ccccc13)=C\CC[C@@]1(C)O[C@@H]21
category: inactive
--
compound: Oc1ccc2ccccc2c1C=NCCCN=Cc1c(O)ccc2ccccc12
category: inactive
--
compound: N#CC1=C(N)Oc2cc3c(cc2C1c1cccs1)OCO3 (stereo unspecified)
category: active
--
compound: CS(=O)(=O)c1ccc(Oc2cc(F)cc(C#N)c2)c2c1[C@H](O)[C@H](F)[C@@H]2F
category: inactive
--
compound: CN(C)CCNC(=O)c1ccc(Nc2nc3ccccc3c3occc23)cc1
category: inactive
--
compound: OCCN(CCO)N=Nc1ccc(-c2nc3ccccc3[nH]2)cc1
category: inactive

Input line: Called result for Oc1ccc(C(c2ccccc2)(c2ccccc2)c2ccccc2)cc1
Output line: inactive

Input line: Could you please tell me the result logged for Oc1c(CN2CCC(N3CCOCC3)CC2)cc(Cc2cc(CN3CCC(N4CCOCC4)CC3)c(O)c3ncccc23)c2cccnc12 in this assay?
Output line: inactive

Input line: GET /call?item= COc1cccc(-c2nn(-c3ccccc3)cc2-c2ccnc(NCCNS(=O)(=O)c3ccc(Cl)cc3)c2)c1 returns the recorded outcome of this test.
Output line: inactive

====

Recorded TGI for the following compounds
tested on: NCI/ADR-RES ovarian; assay: NCI tumour cell line growth inhibition, 48 h

compound: O=c1[nH]c2ccc(C(F)(F)F)cc2nc1-c1ccccc1
measured-endpoint: TGI
value: > 100 µM
//
compound: Cc1[nH]c2ncn3nc(C(Cl)(Cl)Cl)nc3c2c1Cc1ccccc1
measured-endpoint: TGI
value: > 100 µM
//
compound: O=C(/C=C/c1ccco1)c1ccc(Nc2nc(Nc3ccc(F)cc3)nc(Nc3ccc(Cl)cc3)n2)cc1
measured-endpoint: TGI
value: > 100 µM

Input line: Give reported TGI value for CN(C1=NCCO1)c1cccc2ccccc12
Output line: > 10 µM

Input line: Please give the documented TGI of Cc1ccc(S(=O)ON2CCC(C(=O)O)(c3ccccc3)CC2)cc1 (centres undefined)
Output line: > 100 µM

Input line: Quick one: give measured TGI for C=C[C@@H]1OC(=O)O[C@H]1CO
Output line: > 100 µM

Input line: Supply recorded TGI for C=C(O)c1ccccc1C#Cc1ccccc1C(=O)OC here.
Output line: > 10 µM

Input line: Look up and state reported TGI for CC1=C(C)C(=O)c2c(c(C(=O)c3ccccc3)c3nc4ccccc4n3c2C)C1=O
Output line: > 100 µM

Input line: Identify measured TGI corresponding to C=C1C(=O)O[C@@H]2C[C@@H]1CC[C@]1(C)O[C@H]1CC[C@@]1(C)O[C@@H]1CC[C@@]2(C)O
Output line: 46.9 µM

Input line: Respond only with TGI recorded for Cc1ccc(-c2c(C#N)c(-c3ccc(Cl)cc3)c(C#N)c(=O)n2NS(=O)(=O)c2ccccc2)cc1
Output line: > 100 µM

Input line: Give me measured TGI, please, for this compound: CN(C)CCCNc1c(O)c2c(c(O)c1Cl)C(=O)C=CC2=O
Output line: 5.38 µM

Input line: In one line, give reported TGI of the entry Cc1cc2c(c3c1c1ccccc1n3C)C(=O)C=CC2=O .
Output line: > 100 µM

Input line: Tell me its TGI given CCOC(=O)C1(C(=O)OCC)C[C@]23OCCC(=O)[C@H]2[C@H]2C(=O)OC(C)(C)O[C@]23C1 as the entry.
Output line: > 100 µM

Input line: Return TGI for the following compound: C[C@]12CC[C@@H]3c4ccc(O)cc4CC[C@H]3[C@@H]1C/C(=C\c1ccc([N+](=O)[O-])cc1)C2=O
Output line: > 100 µM
